src = the array DNA melting data of Ke et al. (doi:10.1101/2024.01.08.574731)

EXPERIMENT DESCRIPTION: folding enthalpy; higher = less favourable; fluorescence melt of hairpins on a sequencing array, two-state fit
TEST PARAMETERS: sodium 0.088 M
ENDPOINT LABEL: folding enthalpy

Request: Recorded folding enthalpy of GAGGGCGAAAGCCCACTC ((((((....)))..))) , please.
Response: -10.6 kcal/mol

Request: Recorded folding enthalpy of GTCTTCGAAAGAAGCGAC ((((((....)))..))) , please.
Response: -20 kcal/mol

Request: Recorded folding enthalpy of GAAATCCGAAAGGAATTC (((.(((....))).))) , please.
Response: -28.1 kcal/mol

Request: Recorded folding enthalpy of CGCGGAACTATCCGCG ((((((....)))))) , please.
Response: -31.2 kcal/mol

Request: Recorded folding enthalpy of GAAGCACGAAAGTGTTTC (((.(((....))).))) , please.
Response: -35.2 kcal/mol

Request: Recorded folding enthalpy of GATCGTATTCACGATC ((((((....)))))) , please.
Response: -34.7 kcal/mol

Request: Recorded folding enthalpy of GATCCTGTAAAGGATC ((((((....)))))) , please.
Response: -39.6 kcal/mol

Request: Recorded folding enthalpy of GGCACAGGAAACTATGCC ((((.((....)).)))) , please.
Response: -29.2 kcal/mol

Request: Recorded folding enthalpy of GGTGGGACGAAAGTCACC (((..(((....)))))) , please.
Response: -14.4 kcal/mol

Request: Recorded folding enthalpy of GCGCGAGGAAACTCGCAC (.(((((....))))).) , please.
Response: -11.4 kcal/mol

Request: Recorded folding enthalpy of GTGTGCCGAAAGGCTCAC (((.(((....))).))) , please.
Response: -31.5 kcal/mol

Request: Recorded folding enthalpy of GCGTAGCGAAAGCTTTGC ((..(((....)))..)) , please.
Response: -7.28 kcal/mol
